The reported numbers originate from the supplement of paper PMC6555819.

Entries and their measured PBM binding z-score follow.
# Tested on: FXR:RXRa (NR concentration 270 nM, RXRa partner concentration 90 nM)
# assay-text: PBM binding z-score (relative to random genomic background probes); higher = stronger binding; sequences stand for … in GC…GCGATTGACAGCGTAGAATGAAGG

{"macromolecule-sequence": "CCTACTGGGCCATCCAGAGGTCATTGATCATATG", "PBM binding z-score": 2.46}
{"macromolecule-sequence": "ATCTCTAGGTAAATTTCAGTGAAAGATCGATAGA", "PBM binding z-score": 0.175}
{"macromolecule-sequence": "ACTAGTTGGTCGGCTGAGGTCACACACAATTCGG", "PBM binding z-score": 3.37}
{"macromolecule-sequence": "TGAATGAGGTTATAAGATCAAGGAACGTTGCAAA", "PBM binding z-score": 1.48}
{"macromolecule-sequence": "GCTATTGGTTGAAAGGGCAACCGAATGATTCTCG", "PBM binding z-score": 0.353}
{"macromolecule-sequence": "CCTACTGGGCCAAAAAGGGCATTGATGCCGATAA", "PBM binding z-score": -0.479}

---

# System: PPARg:RXRa 270nM:90nM, anti-RXR (NR concentration 270 nM, RXRa partner concentration 90 nM)
# assay-text: PBM binding z-score (relative to random genomic background probes); higher = stronger binding; sequences stand for … in GC…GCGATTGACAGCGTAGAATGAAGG
Entries and their measured PBM binding z-score follow.

{"macromolecule-sequence": "GCTCGGAGGACAAGGGCAGAGCTTTGTCCGTAGA", "PBM binding z-score": -0.532}
{"macromolecule-sequence": "AGAATGAGGGTAAGATCAGGGAAACAGAATACAT", "PBM binding z-score": 0.698}
{"macromolecule-sequence": "TCGAGTAGGTTACCAATGGGGCATTAAGCTTTCT", "PBM binding z-score": 1.17}
{"macromolecule-sequence": "ATCTCTAAGTAAAAGTTCAGTGAATCCCGAGGAT", "PBM binding z-score": 3.87}
{"macromolecule-sequence": "AGAACGAGGTTAAGATCAGGGAAACAGAATACAT", "PBM binding z-score": 1.92}
{"macromolecule-sequence": "GCTAGTTGGTCAGTAAAAGGTAACACACCGGTCG", "PBM binding z-score": 0.945}
{"macromolecule-sequence": "CGTACAGGGTCAGCTAGGCCAGAGTAGGGACGGC", "PBM binding z-score": 3.3}
{"macromolecule-sequence": "ACTAGCAGGCCAAGTTTGGGTCATTCAAACAAAG", "PBM binding z-score": 0.215}
{"macromolecule-sequence": "CAGACTAGGTCACCGGAAGGTCAAAGTCCGCATG", "PBM binding z-score": 7.03}
{"macromolecule-sequence": "CGTCCAAGGTCAGAGAGTTCAGTGAATGCCGAGT", "PBM binding z-score": 2.83}
{"macromolecule-sequence": "AGAATGATGTTATTAAGATCAGGGAATTGCGGTC", "PBM binding z-score": -0.306}
{"macromolecule-sequence": "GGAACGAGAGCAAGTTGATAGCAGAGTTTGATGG", "PBM binding z-score": -0.573}
{"macromolecule-sequence": "TCTATTTGTTGAAGGGCAACCGACGAGTCCGTTT", "PBM binding z-score": 2.21}
{"macromolecule-sequence": "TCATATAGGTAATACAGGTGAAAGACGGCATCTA", "PBM binding z-score": 2.73}
{"macromolecule-sequence": "AGAATGAGGTTACCAAAGAACAGGGAAACGCTTG", "PBM binding z-score": 2.41}
{"macromolecule-sequence": "TCATATAGGTAATACAGGTGAAACTCGGCATCTA", "PBM binding z-score": 2.56}
{"macromolecule-sequence": "TTACCAGGGTGAGCTGAGGTCGTTGATCCAACTC", "PBM binding z-score": 1.08}
{"macromolecule-sequence": "GCTGCTAGGTCAACTGTTGGTCAGCTAAAGCTCG", "PBM binding z-score": 3.07}
{"macromolecule-sequence": "GCGACTGGGGCATCAGCAGATTACCATAACTTAA", "PBM binding z-score": 0.488}
{"macromolecule-sequence": "ATATGTAGGTTAGCGGGTCATTCAGTTTGCGCAT", "PBM binding z-score": 5.6}
{"macromolecule-sequence": "AGATGTAGGTTATCGGGTCATTCAGTTTGCGCAT", "PBM binding z-score": 5.84}
{"macromolecule-sequence": "CCTACTGGGCCAAGAAAGGTCATTGATTCAGTGA", "PBM binding z-score": 3.17}
{"macromolecule-sequence": "TCTGCTAGGTCAACGATGTTCAGCTAATCTGCTA", "PBM binding z-score": 3.01}
{"macromolecule-sequence": "CCTACTGGGCCCCGAAAGGTCATTGATTCAGTGA", "PBM binding z-score": 2.68}
{"macromolecule-sequence": "AATACAGGGTCACTAGGCCAGAGTCGGTACGAAT", "PBM binding z-score": 6.36}
{"macromolecule-sequence": "CCTCGGAGGACAGAAGGTCAGAGCAGTCCGCTTT", "PBM binding z-score": 0.948}
